// data source = patent US20210388081A1

Biological target: T1, FcRL3, overexpressed on 3T3 cells (UniProt Q96P31 18-734, limits assumed)
T1 construct: whole, on cells
T1 sequence (looked up): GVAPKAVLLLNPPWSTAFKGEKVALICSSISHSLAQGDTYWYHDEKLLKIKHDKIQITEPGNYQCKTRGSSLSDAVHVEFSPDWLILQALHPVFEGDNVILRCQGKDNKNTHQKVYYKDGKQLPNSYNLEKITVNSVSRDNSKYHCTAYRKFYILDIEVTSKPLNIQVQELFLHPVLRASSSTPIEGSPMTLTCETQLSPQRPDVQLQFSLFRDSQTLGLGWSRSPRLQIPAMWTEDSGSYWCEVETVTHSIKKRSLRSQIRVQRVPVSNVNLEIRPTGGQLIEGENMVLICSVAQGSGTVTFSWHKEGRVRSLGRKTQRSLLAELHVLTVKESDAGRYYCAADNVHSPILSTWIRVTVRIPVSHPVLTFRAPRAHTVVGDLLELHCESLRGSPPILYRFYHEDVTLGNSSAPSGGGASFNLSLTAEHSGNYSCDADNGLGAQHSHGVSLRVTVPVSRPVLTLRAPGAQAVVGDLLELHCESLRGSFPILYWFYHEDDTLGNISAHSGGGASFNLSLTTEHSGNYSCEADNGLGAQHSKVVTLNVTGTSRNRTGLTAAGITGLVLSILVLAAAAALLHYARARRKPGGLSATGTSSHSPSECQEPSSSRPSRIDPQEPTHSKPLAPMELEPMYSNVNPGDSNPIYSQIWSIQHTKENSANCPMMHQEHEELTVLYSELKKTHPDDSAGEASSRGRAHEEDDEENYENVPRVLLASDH
Assay: phage clone on 3T3-FcRL3 cells
MEASURED_METRIC: binding result

[in] Give recorded binding result. ET200-045 (scFv, screened as phage clone; entry is VL-linker-VH-His tag-HA tag) scFv: QPVLTQPPSVSVAPGKTATITCGGNNIGSESVHWYHQKPGQAPVLVIYDDAGRPSGIPERFTGSNSGNTATLTISRVEAGDEADYYCQVWDRNSAQFVFGPGTKVTVLGSRGGGGSGGGGSGGGGSLEMAEVQLVQSGAEVKKPGASVKVSCKASGYTFTSYGISWVRQAPGQGLEWMGWISAYNGNTNYAQKLQGRVTMTTDTSTSTAYMELRSLRSDDTAVYYCARGVHLDWWGQGTLVTVSSTSGQAGQHHHHHHGAYPYDVPDYAS
[out] no binding

[in] Quickly give me recorded binding result for ET200-116 (scFv, screened as phage clone; entry is VL-linker-VH-His tag-HA tag) scFv: QPVLTQPPSVSVSPGQTAAIPCSGDKLGDKFASWYQQKPGQSPVLVIYQDTKRPSGIPERFSGSNSGNTATLTISGTQAMDEADYYCQTWASGIVVFGGGTKLTVLGSRGGGGSGGGGSGGGGSLEMAQVQLQQSGPGLVKPSQTLSLTCAISGDSVSSNSAAWNWIRQSPSRGLEWLGRTYYRSKWYNDYAVSVKSRITINPDTSKNQFSLQLNSVTPEDTAVYYCARERSGWKGFDYWGQGTLVTVSSTSGQAGQHHHHHHGAYPYDVPDYAS
[out] no binding
